Quick list: CC50 at 72 h per entry.
Experimental Details: Cytotoxicity against MDCK cells assessed as cell viability after 72 hrs by MTT assay
Assay type: cell-based, Canis lupus familiaris
Condition: dog
Result Type: CC50 at 72 h

| Compound | Result Type | Observed Measurement |
| --- | --- | --- |
| O=C1O/C(=C(/C(=O)O)c2ccccc2)C(O)=C1c1ccccc1 [PULVIC ACID] | CC50 at 72 h | > 250 µg/mL |
| O=C1O/C(=C/c2ccc(O)cc2)C(O)=C1c1ccc(O)cc1 [ISOASPULVINONE E] | CC50 at 72 h | > 250 µg/mL |
| O=C1O/C(=C\c2ccc(O)cc2)C(O)=C1c1ccc(O)cc1 [ASPULVINONE E] | CC50 at 72 h | > 250 µg/mL |
